- targetOrTestSystem: VEGF-A121 (Homo sapiens) (UniProt P15692)
- Sequence: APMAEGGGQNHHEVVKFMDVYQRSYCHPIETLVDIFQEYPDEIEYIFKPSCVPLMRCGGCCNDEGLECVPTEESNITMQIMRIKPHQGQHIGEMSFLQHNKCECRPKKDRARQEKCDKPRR
- conditionInfo: all G 2'-F; A,C,U 2'-OMe; Sp3 (1,3-propanediol) joins the two parts (position 9); 5' C6NH2; 3' idT; direct TR-FRET, RT
pKd: −log10 of the molar value.
endpointLabel: pKd

>>> print(df.to_string())
                                   residues  numericresult
0  AGGCCGCCCCGCGCGGAGGGGUUUCAUUAUCCCGUUUGGCGGCUU [Aptamer 47]           7.96
